Values compiled from the supplement of paper PMC11061612.

# Tested on: CAL-85-1 (Breast Carcinoma);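 note: after 72 h of two-drug dosing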
# Experimental Details: Bliss excess, mean over the matrix (fraction); higher = more synergy
So I've got a bunch of compounds here, and I need their Bliss excess values.
Number, no unit, nothing else.

Query (compound): CC1(C)CCC(CN2CCN(c3ccc(C(=O)NS(=O)(=O)c4ccc(NCC5CCOCC5)c([N+](=O)[O-])c4)c(Oc4cnc5[nH]ccc5c4)c3)CC2)=C(c2ccc(Cl)cc2)C1 [Venetoclax] + C[C@@H](Nc1cc(F)cc(F)c1)c1cc(C(=O)N(C)C)cc2c(=O)cc(N3CCOCC3)oc12 [AZD8186] (first compound max 1 µM, 7x7, partner max 3 µM) ; field requested: Bliss excess
-0.055

Next compound: Cc1cc2ncnn2cc1Nc1ncc2c(n1)n(C1CCOCC1)c(=O)n2C [AZD7648] + C=CCn1c(=O)c2cnc(Nc3ccc(N4CCN(C)CC4)cc3)nc2n1-c1cccc(C(C)(C)O)n1 [AZD1775] (first compound max 10 µM, partner max 1 µM)
-0.0292

Would you mind doing CN(CCO)CC[C@H](CSc1ccccc1)Nc1ccc(S(=O)(=O)NC(=O)c2ccc(N3CCC([C@@H](O)c4ccccc4-c4ccc(Cl)cc4)CC3)cc2)cc1S(=O)(=O)C(F)(F)F [AZD4320] + Cn1cnc2c(F)c(Nc3ccc(Br)cc3Cl)c(C(=O)NOCCO)cc21 [Selumetinib] (first compound max 1 µM, 7x7, partner max 3 µM) as well?
-0.0492

How about C[C@@H]1COCCN1c1cc(C2([S@](C)(=N)=O)CC2)nc(-c2ccnc3[nH]ccc23)n1 [AZD6738] + Nc1ccn([C@@H]2O[C@H](CO)[C@@H](O)C2(F)F)c(=O)n1 [Gemcitabine] (first compound max 10 µM, 7x7, partner max 0.3 µM) ?
0.0227

And then Cc1c2c(nn1C)CSCc1cc(n(C)n1)CSc1cc(c3ccccc3c1)OCCCc1c(C(=O)O)n(C)c3c-2c(Cl)ccc13 [AZD5991] + Cn1cnc2c(F)c(Nc3ccc(Br)cc3Cl)c(C(=O)NOCCO)cc21 [Selumetinib] (first compound max 1 µM, 7x7, partner max 3 µM) , what is it?
-0.0162

Same for C[C@@H](c1ccc2nccn2c1)n1nnc2ncc(-c3cnn(C)c3)nc21 [Savolitinib] + CC1(C)CCC(CN2CCN(c3ccc(C(=O)NS(=O)(=O)c4ccc(NCC5CCOCC5)c([N+](=O)[O-])c4)c(Oc4cnc5[nH]ccc5c4)c3)CC2)=C(c2ccc(Cl)cc2)C1 [Venetoclax] (first compound max 1 µM, 7x7, partner max 1 µM)
-0.0468

----------
Answer each item with its documented combination Emax.
# System: NCI-H1944 (Lung Adenocarcinoma)
# Experimental Details: combination Emax (second highest fraction inhibited in the dose matrix, 72 h); higher = more inhibition; extreme values may be limits of the assay

Item CS(=O)(=O)CCNCc1ccc(-c2ccc3ncnc(Nc4ccc(OCc5cccc(F)c5)c(Cl)c4)c3c2)o1 [Lapatinib] + NC1(c2ccc(-c3nc4ccn5c(=O)[nH]nc5c4cc3-c3ccccc3)cc2)CCC1 [MK-2206] (first compound max 10 µM, 7x7, partner max 10 µM) has what recorded combination Emax?
0.941

What do you get for CC1(C)CCC(CN2CCN(c3ccc(C(=O)NS(=O)(=O)c4ccc(NCC5CCOCC5)c([N+](=O)[O-])c4)c(Oc4cnc5[nH]ccc5c4)c3)CC2)=C(c2ccc(Cl)cc2)C1 [Venetoclax] + CN(C)CCCOc1ccc(-c2ccc3ncc4c(c3c2)n(C2CCOCC2)c(=O)n4C)cn1 [AZD0156] (first compound max 1 µM, 7x7, partner max 1 µM) ?
0.228

Now try CN(C)CCCOc1ccc(-c2ccc3ncc4c(c3c2)n(C2CCOCC2)c(=O)n4C)cn1 [AZD0156] + O=C(c1cc(Cc2n[nH]c(=O)c3ccccc23)ccc1F)N1CCN(C(=O)C2CC2)CC1 [Olaparib] (first compound max 3 µM, partner max 3 µM) .
0.49

Same question for CN(CCO)CC[C@H](CSc1ccccc1)Nc1ccc(S(=O)(=O)NC(=O)c2ccc(N3CCC([C@@H](O)c4ccccc4-c4ccc(Cl)cc4)CC3)cc2)cc1S(=O)(=O)C(F)(F)F [AZD4320] + C=CCn1c(=O)c2cnc(Nc3ccc(N4CCN(C)CC4)cc3)nc2n1-c1cccc(C(C)(C)O)n1 [AZD1775] (first compound max 1 µM, partner max 1 µM) please.
0.813
